Collected GI50 values appear next to each entry.
tested on: SN12C renal; test: NCI tumour cell line growth inhibition, 48 h
readout-type: GI50

> print(dat)
                                   molecule   result
1  Nc1n[nH]c2cccc(C#Cc3cccc(C(=O)Nc4ccc(CN5CCOCC5)c(C(F)(F)F)c4)c3)c12  2.48 µM
2  CCn1c(-c2nonc2N)nc2c(C#CC(C)(C)O)nc(OC[C@@H](N)c3ccccc3)cc21  3.96 µM
3          Cc1cc(I)cc(CN(CCCN(C)C)C(C)C)c1O  37.8 µM
4  Cc1csc(-c2nnc(Nc3ccc(Oc4ncccc4-c4ccnc(N)n4)cc3)c3ccccc23)c1  2.54 µM
5  O=C1C=C[C@@H](COC2OC(CO)C(O)C(O)C2O)O1 (stereo not given in full)  8.38 µM
